measured.on: IGF-1R (Homo sapiens, UniProt P08069)
Construct: Soluble IGF-1R was obtained from R&D Systems; purchased R&D Systems 391-GR/CF
measurement.description: IGF-1R peptide assay, time-resolved FRET, competition with biotinylated 20E2 (IC50)
Assay type: binding
No end group written: not given here.
measurement.name: IC50 (nM)

substance="EHWNTVDPFYQYFSELLRESG-NH2 [Clone S178]" test_value=240
substance="NGVERAGTGDNFYDWFVAQLH-NH2 [Clone S176]" test_value=418
substance="QSDSGTVHDRFYGWFRDTWAS-NH2 [Clone S179]" test_value=5350
substance="EHWNTVDPFYFTLFEWLRESG-NH2 [Clone S177]" test_value=2040
substance="TFYSCLASLLTGTPQPNRGPWERCR [20C-3-G3-IGFR]" test_value=184

====

measured.on: human insulin receptor (HIR) (Homo sapiens)
Construct: made in house
Sequence (P06213 28-758 limits assumed): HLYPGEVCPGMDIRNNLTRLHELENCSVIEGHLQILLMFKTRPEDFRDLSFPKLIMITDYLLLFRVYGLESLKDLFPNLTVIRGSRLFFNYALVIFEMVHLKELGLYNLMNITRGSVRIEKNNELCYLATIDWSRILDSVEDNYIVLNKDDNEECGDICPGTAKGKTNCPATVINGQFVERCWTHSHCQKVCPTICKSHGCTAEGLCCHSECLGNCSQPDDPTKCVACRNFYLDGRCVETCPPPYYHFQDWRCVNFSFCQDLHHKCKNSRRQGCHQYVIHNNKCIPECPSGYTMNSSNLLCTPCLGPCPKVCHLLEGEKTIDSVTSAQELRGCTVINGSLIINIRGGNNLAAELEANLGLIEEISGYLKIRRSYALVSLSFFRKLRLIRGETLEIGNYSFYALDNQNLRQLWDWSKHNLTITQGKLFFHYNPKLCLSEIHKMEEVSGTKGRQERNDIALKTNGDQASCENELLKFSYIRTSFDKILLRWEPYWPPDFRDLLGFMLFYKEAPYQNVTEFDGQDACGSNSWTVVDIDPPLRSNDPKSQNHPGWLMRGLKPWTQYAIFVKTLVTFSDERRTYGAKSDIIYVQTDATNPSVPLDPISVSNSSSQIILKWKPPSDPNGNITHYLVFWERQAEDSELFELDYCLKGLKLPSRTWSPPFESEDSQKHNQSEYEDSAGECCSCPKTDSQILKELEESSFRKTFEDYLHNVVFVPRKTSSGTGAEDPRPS
Sequence (P06213 763-1382 limits assumed): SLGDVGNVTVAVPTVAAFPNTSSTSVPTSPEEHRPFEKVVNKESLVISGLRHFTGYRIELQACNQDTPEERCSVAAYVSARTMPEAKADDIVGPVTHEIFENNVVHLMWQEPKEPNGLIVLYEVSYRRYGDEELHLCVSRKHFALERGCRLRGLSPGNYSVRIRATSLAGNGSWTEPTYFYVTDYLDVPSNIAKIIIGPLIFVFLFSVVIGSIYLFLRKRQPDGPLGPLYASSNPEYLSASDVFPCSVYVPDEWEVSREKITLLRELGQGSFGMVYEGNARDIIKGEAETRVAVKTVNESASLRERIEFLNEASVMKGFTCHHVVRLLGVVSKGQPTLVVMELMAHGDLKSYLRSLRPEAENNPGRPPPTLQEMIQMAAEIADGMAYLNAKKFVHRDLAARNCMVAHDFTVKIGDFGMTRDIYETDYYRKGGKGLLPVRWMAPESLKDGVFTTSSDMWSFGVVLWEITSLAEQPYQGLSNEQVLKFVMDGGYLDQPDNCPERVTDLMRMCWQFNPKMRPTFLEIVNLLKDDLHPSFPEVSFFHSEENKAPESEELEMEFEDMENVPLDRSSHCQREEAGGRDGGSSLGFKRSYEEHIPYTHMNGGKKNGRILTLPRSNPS
measurement.description: 125I-insulin competition binding assay on solubilised purified receptor
cond: read-out: HIR affinity
No end group written: not given here.
measurement.name: Kd

substance="AFYGWFAKK-NH2 [Clone S215]" measurement_name=Kd test_value="> 20 µM"
substance="HLSVGEELSWWVALLGQWAR-NH2 [Clone S282]" measurement_name=Kd test_value="> 20 µM"
substance="DPFYQGLWEWLRESGEE-NH2 [Clone S289]" measurement_name=Kd test_value="> 20 µM"
substance="GFREGQRWYWFVAQVT-NH2 [Clone S278]" measurement_name=Kd test_value="> 20 µM"
substance="FHENFYDAFVRQVSKK [Clone S222]" measurement_name=Kd test_value="> 20 µM"
substance="AFYDWF-NH2 [Clone S182]" measurement_name=Kd test_value="> 20 µM"
substance="AFYDWFAKK-NH2 [Clone S167]" measurement_name=Kd test_value="> 20 µM"
substance="AFYEWFAKK-NH2 [Clone S214]" measurement_name=Kd test_value="> 20 µM"
substance="ALEEEWAWVQVRSIRSGLPL-NH2 [Clone S284]" measurement_name=Kd test_value="> 20 µM"
substance="APVSTEELRWGALLFGQWAG-NH2 [Clone S283]" measurement_name=Kd test_value="> 20 µM"
substance="AFYDWFA-NH2 [Clone S181]" measurement_name=Kd test_value="> 20 µM"
substance="QAPSNFYDWFVREWDEE-NH2 [Clone S287]" measurement_name=Kd test_value="5.9 µM"
substance="WGRSFYRYFETLLAQGI-NH2 [Clone S261]" measurement_name=Kd test_value="> 20 µM"
substance="FYDWFKK-NH2 [Clone S166]" measurement_name=Kd test_value="> 20 µM"
substance="EHWNTVDPFYQYFSELLRESG-NH2 [Clone S178]" measurement_name=Kd test_value="0.13 µM"
substance="AFYDWFAK-NH2 [Clone S180]" measurement_name=Kd test_value="> 20 µM"
substance="RWPNFYGYFESLLTHFS-NH2 [Clone S257]" measurement_name=Kd test_value="14 µM"
substance="AFYKWFAKK-NH2 [Clone S216]" measurement_name=Kd test_value="> 20 µM"
substance="TGHRLGLDEQFYWWFRDALSG-NH2 [Clone S265]" measurement_name=Kd test_value="0.11 µM"
